// data source = ChEMBL document CHEMBL2157975

- assay notes: Metabolic stability in mouse hepatic microsomes assessed as compound remaining at 60 mins
- Format: ADME
- experimental setup: liver microsomes, read-out: Stability
measured attribute: remaining at 1 h (%)
Provide the reading as a plain figure in %.

Tell me the measured remaining at 1 h of `O=C(Oc1coc(CSc2ncccn2)cc1=O)c1ccc([N+](=O)[O-])cc1` , please. 4.9

---

- measurement target: UniProt:P35414
- Sequence (P35414 whole entry): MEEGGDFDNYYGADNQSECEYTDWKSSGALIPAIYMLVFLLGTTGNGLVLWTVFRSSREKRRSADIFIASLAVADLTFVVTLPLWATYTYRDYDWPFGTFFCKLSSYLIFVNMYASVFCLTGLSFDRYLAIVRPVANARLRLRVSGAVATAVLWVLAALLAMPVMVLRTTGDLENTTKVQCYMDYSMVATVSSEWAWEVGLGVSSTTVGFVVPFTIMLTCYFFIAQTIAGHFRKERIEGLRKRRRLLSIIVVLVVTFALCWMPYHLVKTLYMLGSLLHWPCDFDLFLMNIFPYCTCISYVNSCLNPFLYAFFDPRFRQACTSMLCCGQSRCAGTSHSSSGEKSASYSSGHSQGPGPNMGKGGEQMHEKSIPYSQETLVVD
- assay notes: Antagonist activity at APJ receptor expressed in CHOK1 cells assessed as inhibition of apelin13-induced beta-arrestin recruitment after 90 mins by luminescence assay
pIC50: −log10 of the molar value.
Quick reference: pIC50 of the listed items.

Some solved cases for reference:
[[record]]
chemical_smiles = "Cc1ccnc(SCc2cc(=O)c(OC(=O)C(C)C)co2)n1"
measured_attribute = "pIC50"
measured_value = "< 4.10"

[[record]]
chemical_smiles = "Cc1ccnc(SCc2cc(=O)c(OCc3ccccc3)co2)n1"
measured_attribute = "pIC50"
measured_value = "< 4.10"

[[record]]
chemical_smiles = "CCN(CC)S(=O)(=O)c1ccc(C(=O)Oc2coc(CSc3ncccn3)cc2=O)cc1"
measured_attribute = "pIC50"
measured_value = "< 4.10"


I'm curious: which pIC50 was measured for `O=C(Oc1coc(CSc2ncccn2)cc1=O)c1ccc(-c2ccccc2)cc1` tested on UniProt:P35414? < 4.10

I'm curious: which pIC50 was measured for `COc1cc(C(=O)Oc2coc(CSc3ncccn3)cc2=O)c([N+](=O)[O-])cc1OC` tested on UniProt:P35414? < 4.10

I'm curious: which pIC50 was measured for `Cc1ccnc(SCc2cc(=O)c(OC(=O)c3ccccc3)co2)n1` tested on UniProt:P35414? < 4.10

I'm curious: which pIC50 was measured for `Cc1ccc(C(=O)Oc2coc(CSc3ncccn3)cc2=O)cc1C` tested on UniProt:P35414? < 4.10

I'm curious: which pIC50 was measured for `O=C(Oc1coc(CSc2ncccn2)cc1=O)c1ccc(S(=O)(=O)N2CCOCC2)cc1` tested on UniProt:P35414? < 4.10

I'm curious: which pIC50 was measured for `Cc1ccnc(S(=O)(=O)Cc2cc(=O)c(OC(=O)c3ccc(Cl)c([N+](=O)[O-])c3)co2)n1` tested on UniProt:P35414? 5.49

I'm curious: which pIC50 was measured for `O=C(Oc1coc(CSc2ncccn2)cc1=O)c1ccc(S(=O)(=O)N2CCCCC2)cc1` tested on UniProt:P35414? < 4.10

I'm curious: which pIC50 was measured for `Cc1ccc(C(=O)Oc2coc(CSc3nccc(C)n3)cc2=O)cc1` tested on UniProt:P35414? < 4.10

I'm curious: which pIC50 was measured for `Cc1ccnc(SCc2cc(=O)c(OC(=O)C(C)(C)C)co2)n1` tested on UniProt:P35414? < 4.10

I'm curious: which pIC50 was measured for `CC(C)Oc1ccc(C(=O)Oc2coc(CSc3ncccn3)cc2=O)cc1` tested on UniProt:P35414? < 4.10

I'm curious: which pIC50 was measured for `Cc1ccnc(SCc2cc(=O)c(OC(=O)c3cccc(C#N)c3)co2)n1` tested on UniProt:P35414? < 4.10

I'm curious: which pIC50 was measured for `CCOc1ccc(C(=O)Oc2coc(CSc3ncccn3)cc2=O)cc1` tested on UniProt:P35414? < 4.10

I'm curious: which pIC50 was measured for `Cc1ccnc(SCc2cc(=O)c(OC(=O)c3cnco3)co2)n1` tested on UniProt:P35414? < 4.10

I'm curious: which pIC50 was measured for `COc1ccc(C(=O)Oc2coc(CSc3ncccn3)cc2=O)cc1` tested on UniProt:P35414? < 4.10

I'm curious: which pIC50 was measured for `O=C(Oc1coc(CSc2ncccn2)cc1=O)c1cc(Cl)ccc1[N+](=O)[O-]` tested on UniProt:P35414? < 4.10

I'm curious: which pIC50 was measured for `Cc1ccnc(SCc2cc(=O)c(OC(=O)c3ccc(OC(F)(F)F)cc3)co2)n1` tested on UniProt:P35414? < 4.10

I'm curious: which pIC50 was measured for `CC(C)(C)c1ccc(C(=O)Oc2coc(CSc3ncccn3)cc2=O)cc1` tested on UniProt:P35414? < 4.10

I'm curious: which pIC50 was measured for `COc1cccc(C(=O)Oc2coc(CSc3nccc(C)n3)cc2=O)c1` tested on UniProt:P35414? < 4.10
